Field: Kd. Provide a value for each of the binders that follow.
# target: T1, human transferrin receptor 1 (human, UniProt P02786 89-760, limits assumed)
# T1 construct: also called hTfR1; huTfR1
# T1 sequence (P02786 89-760 limits assumed): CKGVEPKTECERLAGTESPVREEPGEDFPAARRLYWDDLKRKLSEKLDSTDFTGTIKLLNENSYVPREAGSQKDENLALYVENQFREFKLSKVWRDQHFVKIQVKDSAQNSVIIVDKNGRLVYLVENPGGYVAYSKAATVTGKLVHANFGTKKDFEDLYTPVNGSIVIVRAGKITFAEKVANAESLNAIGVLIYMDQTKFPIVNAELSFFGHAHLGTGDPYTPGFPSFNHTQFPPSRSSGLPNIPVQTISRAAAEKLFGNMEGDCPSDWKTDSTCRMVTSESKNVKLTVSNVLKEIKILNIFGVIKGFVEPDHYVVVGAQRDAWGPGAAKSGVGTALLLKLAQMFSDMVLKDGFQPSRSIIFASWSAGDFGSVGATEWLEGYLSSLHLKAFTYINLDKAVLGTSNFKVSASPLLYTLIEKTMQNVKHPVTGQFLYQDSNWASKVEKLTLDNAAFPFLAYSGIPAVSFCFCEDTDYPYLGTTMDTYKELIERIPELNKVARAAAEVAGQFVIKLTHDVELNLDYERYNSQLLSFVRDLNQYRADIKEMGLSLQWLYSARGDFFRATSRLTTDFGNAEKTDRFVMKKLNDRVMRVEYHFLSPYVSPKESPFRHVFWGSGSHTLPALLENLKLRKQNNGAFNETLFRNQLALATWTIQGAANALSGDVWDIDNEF
# test.summary: Carterra LSA SPR array, IgG captured on anti-IgG lawn, hTfR1 as analyte, 25 C, 1:1 Langmuir fit
Answers are plain numbers, in nM.

{"binder": "9-D4 (antibody, V domains shown, Tested as a mouse monoclonal IgG; also called 9-D04) VH: QVQLQQSGTELARPGASVKLSCKASGFTFTDYGINWVKQRTGQGLEWIGEIYPSSGNSYYNEKFKAKATLTADKSSSTAYMELRSLTSEDSAVYFCARSTYYGSPIDYWGQGTTLTVSS VL: DIVMTQSHKFMSTPVGDRVSITCKASQDVDTTVAWYQQKPGQSPKLLIYWASTRQIGVPDRFTGSGSGTDFTLTISNVQSEDLADYFCQQYSTYPLTFGGGTKLEIK", "Kd / nM": 5.86}

Request: Look up Kd: 6-D3 (antibody, V domains shown, Tested as a mouse monoclonal IgG; also called 6-D03) VH: QVQLQQPGAELVKPGASVKMSCKASGYTFTRHWITWVKQRPGQGLEWIGDIYPGSGRTNYNEKFKSTATLTVDTSSSTAYMQLSSLTSEDSAVYYCARDGYLYINYFDYWGQGTTLTVSS VL: ENVLTQSPAIMSASPGEKVTMTCSASSSVSFMHWFQQKSSTSPKLWIYDTSKLASGVPGRFSGSGSGSSYSLTISSMAAEDVATYYCFQGSGYPYTFGGGTKLEIK
Response: 0.986
